Every entry's value here was drawn from patent US10370343B2.

study.target: Full length human recombinant HDAC8 protein (Homo sapiens, UniProt Q9BY41)
Construct: Full length human recombinant HDAC8 protein was expressed in baculoviral system; made in house
measurement.notes: In vitro histone deacetylase assay: enzymatic HDAC8 electrophoretic mobility shift assay
Type: biochemical
condition.summary: electrophoretic mobility shift assay; enzyme 1 nM; 2 μM fluorescently labeled peptide substrate RHKK(Ac)-NH2; 25° C.; 12 concentrations; read-out: HDAC8 IC50
molecules and their reported IC50

Example cases with answers are listed next.
molecule: O=C(NO)c1ccc2c(c1)N(Cc1nc3cc(Cl)ccc3o1)C(=O)CO2
val: < 25 nM
--
molecule: O=C(NO)c1ccc2c(c1)CCCN2c1nc2ccccc2[nH]1
val: > 1000 nM

Query: Can you look up the measured IC50 of O=C(NO)c1cccc2c1CCCN2c1nc2ccccc2[nH]1 for me?
Reply: > 1000 nM

Query: Can you look up the measured IC50 of Cc1cccc(CN2C(=O)COc3ccc(C(=O)NO)cc32)c1 for me?
Reply: 25 to 100 nM

Query: Can you look up the measured IC50 of O=C(NO)c1ccc2c(c1)N(CCOCC1CC1)C(=O)CO2 for me?
Reply: 25 to 100 nM

Query: Can you look up the measured IC50 of O=C(NO)c1ccc2c(c1)N(CCc1ccccc1)C(=O)CO2 for me?
Reply: 25 to 100 nM

Query: Can you look up the measured IC50 of O=C(NO)c1ccc2c(c1)N(Cc1ccc3nonc3c1)C(=O)CO2 for me?
Reply: < 25 nM

Query: Can you look up the measured IC50 of CS(=O)(=O)c1ccc(CN2CCOc3ccc(C(=O)NO)cc32)cc1 for me?
Reply: 25 to 100 nM

* * *

study.target: Recombinant N-terminal GST tag full-length human HDAC8 (Homo sapiens)
Construct: Recombinant N-terminal GST tag full-length human HDAC8; purchased SignalChem H90-30G-1000; host or cells: baculovirus in Sf9 insect cells
measurement.notes: HDAC8 probe binding assay, time resolved fluorescence (TRF) format
condition.summary: compounds grouped by IC50 range (Table 2)
readout.kind: IC50

compound: O=C(NO)c1ccc2c(c1)N(Cc1cnc(-c3ccccc3)o1)C(=O)CO2
study.target: Recombinant N-terminal GST tag full-length human HDAC8 (Homo sapiens)
readout.kind: IC50
val: ≤ 25 nM

Query: So what IC50 did COc1ccc(CN2C(=O)C(c3ccccc3)Oc3ccc(C(=O)NO)cc32)cc1 (centres unmarked) get with Recombinant N-terminal GST tag full-length human HDAC8 (Homo sapiens)?
Reply: ≤ 25 nM

Query: So what IC50 did CCOc1c(F)cc(CN2C(=O)COc3ccc(C(=O)NO)cc32)cc1F get with Recombinant N-terminal GST tag full-length human HDAC8 (Homo sapiens)?
Reply: 25 to 100 nM

Query: So what IC50 did Cc1cnc2sc(CN3C(=O)COc4ccc(C(=O)NO)cc43)nc2c1 get with Recombinant N-terminal GST tag full-length human HDAC8 (Homo sapiens)?
Reply: ≤ 25 nM

Query: So what IC50 did Cn1c(CN2C(=O)COc3ccc(C(=O)NO)cc32)nc2ccc(Cl)cc21 get with Recombinant N-terminal GST tag full-length human HDAC8 (Homo sapiens)?
Reply: 25 to 100 nM

Query: So what IC50 did O=C(NO)c1ccc2c(c1)N(Cc1cnn(C3CC3)c1)C(=O)CO2 get with Recombinant N-terminal GST tag full-length human HDAC8 (Homo sapiens)?
Reply: 25 to 100 nM

Query: So what IC50 did O=C(NO)c1ccc2c(c1)N(Cc1ccc(F)cc1)C(=O)CO2 get with Recombinant N-terminal GST tag full-length human HDAC8 (Homo sapiens)?
Reply: ≤ 25 nM

Query: So what IC50 did C[C@@H](c1ccccc1)N1C(=O)C(C)(C)Oc2ccc(C(=O)NO)cc21 get with Recombinant N-terminal GST tag full-length human HDAC8 (Homo sapiens)?
Reply: 25 to 100 nM

* * *

study.target: Full length human recombinant HDAC8 protein (Homo sapiens)
Construct: Full length human recombinant HDAC8 protein was expressed in baculoviral system; made in house
Sequence (Q9BY41 1-377): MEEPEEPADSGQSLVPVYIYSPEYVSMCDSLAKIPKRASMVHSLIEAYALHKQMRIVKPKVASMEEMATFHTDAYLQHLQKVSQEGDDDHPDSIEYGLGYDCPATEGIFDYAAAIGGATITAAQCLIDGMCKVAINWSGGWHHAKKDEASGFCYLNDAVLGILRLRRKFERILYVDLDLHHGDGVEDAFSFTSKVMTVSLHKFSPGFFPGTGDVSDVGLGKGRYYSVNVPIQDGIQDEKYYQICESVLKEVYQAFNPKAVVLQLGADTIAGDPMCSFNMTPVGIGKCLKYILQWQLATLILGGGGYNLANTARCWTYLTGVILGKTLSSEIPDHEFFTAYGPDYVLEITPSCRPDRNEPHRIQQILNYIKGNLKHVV
measurement.notes: In vitro histone deacetylase assay: enzymatic HDAC8 electrophoretic mobility shift assay
Format: biochemical
condition.summary: electrophoretic mobility shift assay; enzyme 1 nM; 2 μM fluorescently labeled peptide substrate RHKK(Ac)-NH2; 25° C.; 12 concentrations; read-out: HDAC8 IC50
readout.kind: IC50

Example cases with answers are listed next.
molecule: COCCN1C(=O)COc2ccc(C(=O)NO)cc21
IC50: 100 to 1000 nM
--
molecule: COc1ccc(CN2C(=O)C(CCN(C)C)Oc3ccc(C(=O)NO)cc32)cc1 (stereo not drawn)
IC50: 25 to 100 nM
--
molecule: CC1Oc2cc(C(=O)NO)ccc2N(Cc2ccc(S(C)(=O)=O)cc2)C1=O (stereo not drawn)
IC50: 100 to 1000 nM
--
molecule: CS(=O)(=O)c1ccc(CN2C(=O)COc3cc(C(=O)NO)ccc32)cc1
IC50: 100 to 1000 nM

Query: So what IC50 did Cc1ccccc1CN1C(=O)COc2ccc(C(=O)NO)cc21 get with Full length human recombinant HDAC8 protein (Homo sapiens)?
Reply: 100 to 1000 nM

Query: So what IC50 did CC(C)CCN1C(=O)COc2ccc(C(=O)NO)cc21 get with Full length human recombinant HDAC8 protein (Homo sapiens)?
Reply: 25 to 100 nM

Query: So what IC50 did O=C(NO)c1ccc2c(c1)N(Cc1ccc(-n3cccn3)cc1)C(=O)CO2 get with Full length human recombinant HDAC8 protein (Homo sapiens)?
Reply: < 25 nM

Query: So what IC50 did O=C(NO)c1ccc2c(c1)N(Cc1ccccc1OC(F)(F)F)C(=O)CO2 get with Full length human recombinant HDAC8 protein (Homo sapiens)?
Reply: 100 to 1000 nM

Query: So what IC50 did Cc1ccc(CN2C(=O)COc3ccc(C(=O)NO)cc32)cc1 get with Full length human recombinant HDAC8 protein (Homo sapiens)?
Reply: < 25 nM

Query: So what IC50 did COc1ccc(CN2C(=O)COc3ccc(C(=O)NO)cc32)cc1 get with Full length human recombinant HDAC8 protein (Homo sapiens)?
Reply: < 25 nM

Query: So what IC50 did CC1(C)Oc2ccc(C(=O)NO)cc2N(Cc2nc3cc(Cl)ccc3s2)C1=O get with Full length human recombinant HDAC8 protein (Homo sapiens)?
Reply: < 25 nM

Query: So what IC50 did Cn1c(CN2C(=O)COc3ccc(C(=O)NO)cc32)nc2ccc(Cl)cc21 get with Full length human recombinant HDAC8 protein (Homo sapiens)?
Reply: 25 to 100 nM

Query: So what IC50 did O=C(NO)c1ccc2c(c1)N(Cc1cc(F)ccc1C(F)(F)F)C(=O)CO2 get with Full length human recombinant HDAC8 protein (Homo sapiens)?
Reply: 25 to 100 nM

Query: So what IC50 did O=C(NO)c1ccc2c(c1)N(Cc1ccccc1-c1ccccc1)C(=O)CO2 get with Full length human recombinant HDAC8 protein (Homo sapiens)?
Reply: 100 to 1000 nM

Query: So what IC50 did O=C(NO)c1ccc2c(c1)N(Cc1ccccc1)CC(C(=O)NC1CCOCC1)O2 (stereo not drawn) get with Full length human recombinant HDAC8 protein (Homo sapiens)?
Reply: 25 to 100 nM

Query: So what IC50 did O=C(NO)c1ccc2c(c1)N(Cc1ccc(Cl)cc1)C(=O)CO2 get with Full length human recombinant HDAC8 protein (Homo sapiens)?
Reply: < 25 nM

Query: So what IC50 did O=C(NO)c1ccc2c(c1)N(Cc1ccc(-c3ccccc3)cc1)C(=O)CO2 get with Full length human recombinant HDAC8 protein (Homo sapiens)?
Reply: < 25 nM

Query: So what IC50 did O=C(NO)c1ccc2c(c1)N(Cc1cccc(Cl)c1Cl)C(=O)CO2 get with Full length human recombinant HDAC8 protein (Homo sapiens)?
Reply: < 25 nM

* * *

study.target: Full length human recombinant HDAC8 protein (Homo sapiens, UniProt Q9BY41)
Construct: Full length human recombinant HDAC8 protein was expressed in baculoviral system; made in house
measurement.notes: In vitro histone deacetylase assay: enzymatic HDAC8 electrophoretic mobility shift assay
Format: biochemical
condition.summary: electrophoretic mobility shift assay; enzyme 1 nM; 2 μM fluorescently labeled peptide substrate RHKK(Ac)-NH2; 25° C.; 12 concentrations; read-out: HDAC8 IC50
compounds and their reported IC50

Example cases with answers are listed next.
chemical.smiles: O=C(NO)c1ccc2c(c1)N(Cc1ccccc1Cl)CCO2
val: < 25 nM
//
chemical.smiles: O=C(NO)c1ccc2c(c1)N(Cc1ccc(F)cc1C(F)(F)F)C(=O)CO2
val: 100 to 1000 nM
//
chemical.smiles: O=C(NO)c1ccc2c(c1)N(Cc1cc(Cl)ccc1Cl)C(=O)CO2
val: < 25 nM
//
chemical.smiles: CCCn1c(CN2C(=O)COc3ccc(C(=O)NO)cc32)nc2ccccc21
val: 100 to 1000 nM

Query: Can you look up the measured IC50 of Cc1ccc(CN2C(=O)COc3ccc(C(=O)NO)cc32)cc1C for me?
Reply: < 25 nM

Query: Can you look up the measured IC50 of COCCn1c(N2CCCc3c(C(=O)NO)cccc32)nc2ccccc21 for me?
Reply: > 1000 nM

Query: Can you look up the measured IC50 of O=C(NO)c1ccc2c(c1)N(C(=O)N1CCCCC1)CCO2 for me?
Reply: > 1000 nM

Query: Can you look up the measured IC50 of O=C(NO)c1ccc2c(c1)N(Cc1ccc(OC(F)(F)F)cc1)C(=O)CO2 for me?
Reply: < 25 nM

Query: Can you look up the measured IC50 of O=C(NO)c1ccc2c(c1)N(Cc1ccc(C(F)(F)F)cc1)CCS2(=O)=O for me?
Reply: < 25 nM
